- System: DU-145 prostate
- protocol-text: NCI-60 one-dose screen, 48 h (100 = growth as untreated, 0 = no growth, -100 = all killed)
- condition: 10 µM
About 83,000 compounds went through this panel and 20% of them were active in at least one assay; those are over-represented in the sample as a whole.
value-type: growth (%)
// note: answer is a bare numeric in %

Check out these entries, answers already filled in.
| molecule | growth [%] |
| --- | --- |
| CC[C@@]1(O)C[C@H](OC2CC(N(C)C)C(O)C(C)O2)c2c(cc3c(c2O)C(=O)c2c(O)ccc(O)c2C3=O)[C@H]1C(=O)OC (some centres not stated) | -77.8 |
| NNc1ccccc1 | 98.4 |
| CC[C@@H](C)[C@@H]1NC(=O)C(NC(=O)C(CC(C)C)N(C)C(=O)C2CCCN2C(=O)C(C)O)C(C)OC(=O)C(Cc2ccc(OC)cc2)N(C)C(=O)C2CCCN2C(=O)C(CC(C)C)NC(=O)C(C)C(=O)C(C(C)C)OC(=O)C[C@H]1O (some centres not stated) | -40.7 |
| Cc1ccc(NC(=O)CBr)cc1 | 105 |
| COS(=O)(=O)c1ccccc1 | 114 |

input: Fill in the blank: the reported growth of COC12c3c(C)cc(O)c4c(=O)occ(c34)C(=O)C1C13COC(=O)c4c(O)cc(C)c(c41)C(=O)C2C3OC(C)=O (configuration not stated) is ____.
output: 113

input: Fill in the blank: the reported growth of CC(C)C1(NC(=O)C2CC3c4cccc5[nH]cc(c45)CC3N(C)C2)OC2(O)C3CCCN3C(=O)C(Cc3ccccc3)N2C1=O (configuration not stated) is ____.
output: 104

* * *

- Tested on: MALME-3M melanoma
- protocol-text: NCI-60 one-dose screen, 48 h (100 = growth as untreated, 0 = no growth, -100 = all killed)
- condition: 10 µM
Compounds without any hit were thinned out: in the full panel of roughly 83,000, 20% have a hit.
Just a reminder that ties go to rule not met: only growth strictly below -70% counts as rule met.

Example cases with answers are listed next.
| smiles-notation | target-entity | qualitative-label |
| --- | --- | --- |
| [Cl][Sn]([c]1ccccc1)([c]1ccccc1)[c]1ccccc1 | MALME-3M melanoma | rule not met |
| O=[N+]([O-])/C=C/c1ccc(Cl)cc1[N+](=O)[O-] | MALME-3M melanoma | rule not met |
| C[C@@H]1C[C@@H]([C@H](O)CC2CC(=O)NC(=O)C2)C(=O)[C@@H](C)C1 | MALME-3M melanoma | rule not met |
| O=C1C(=O)c2ccccc2-c2ccccc21 | MALME-3M melanoma | rule met |

Now for another entry.
input: In plain terms, does "CC/C(=C/c1ccc(OC)cc1)[N+](=O)[O-]" come in under -70% for growth?
output: rule not met

* * *

Entries and their growth values follow.
- System: MDA-MB-231 breast
- protocol-text: NCI-60 one-dose screen, 48 h (100 = growth as untreated, 0 = no growth, -100 = all killed)
- condition: 10 µM
Compounds without any hit were thinned out: in the full panel of roughly 83,000, 20% have a hit. Activity calls are given as the source filed them. The calls were made as follows: active = growth percent below 10; inactive = the rest.

input: Fill in the blank: the reported growth of COc1ccccc1[As]=[As]c1ccccc1OC (stereo unspecified) is ____.
output: -83.2% (active)

input: Fill in the blank: the reported growth of "O=C(CBr)Nc1ccc(Cl)cc1" is ____.
output: 64.4% (inactive)

input: Fill in the blank: the reported growth of "C/C1=C\[C@H](C)C[C@H](C)OC(=O)C[C@H](c2ccc(O)cc2)NC(=O)[C@@H](Cc2c(Br)[nH]c3ccccc23)N(C)C(=O)[C@H](C)NC(=O)[C@@H](C)C1" is ____.
output: -33.2% (active)

* * *

- System: SK-MEL-5 melanoma
- protocol-text: NCI-60 one-dose screen, 48 h (100 = growth as untreated, 0 = no growth, -100 = all killed)
- condition: 10 µM
This is part of a sample that, as a whole, favours compounds with a hit. Of some 83,000 tested, about 20% had one in any assay.
value-type: growth (%)
// note: answer is a bare numeric in %

Check out these entries, answers already filled in.
| molecule | growth [%] |
| --- | --- |
| O=[N+]([O-])/C=C\c1ccc2c(c1)OCO2 | 94.3 |
| O=C1C=Cc2ccccc2C1=O | 31.3 |
| C[C@]12CC[C@H]3[C@@H](CCC4=CC(=O)CC[C@@H]43)[C@@H]1CC[C@@H]2OC(=O)N(CCCl)N=O | 51.3 |

input: Fill in the blank: the reported growth of "[Cl][Sn]([c]1ccccc1)([c]1ccccc1)[c]1ccccc1" is ____.
output: -88.7

input: Fill in the blank: the reported growth of "COc1ccc2c(ccc3oc([N+](=O)[O-])cc32)c1" is ____.
output: -80.4

input: Fill in the blank: the reported growth of "O=C1CCC(=O)N1SC(Cl)(Cl)Cl" is ____.
output: 99.5

input: Fill in the blank: the reported growth of "O=C(CBr)Nc1ccc(Cl)cc1" is ____.
output: 78.3

input: Fill in the blank: the reported growth of "C=C1C(=O)O[C@@H]2C[C@@H](C)[C@@H]3C=CC(=O)[C@@]3(C)[C@@H](O)[C@H]12" is ____.
output: -93.5

input: Fill in the blank: the reported growth of "NNc1ccccc1" is ____.
output: 87.9

input: Fill in the blank: the reported growth of "O=[P+](O)c1ccccc1" is ____.
output: 106

input: Fill in the blank: the reported growth of COC1CC2C=C(C)/C=C/C=C/C(=O)NC(c3ccccc3)C/C=C/CCC(O)CC(=O)C2=C1O (stereo not given) is ____.
output: -97.2

input: Fill in the blank: the reported growth of "O=[N+]([O-])c1cc[n+]([O-])c2ccccc12" is ____.
output: -92.5

input: Fill in the blank: the reported growth of CC[C@@]1(O)C[C@H](OC2CC(N(C)C)C(O)C(C)O2)c2c(cc3c(c2O)C(=O)c2c(O)ccc(O)c2C3=O)[C@H]1C(=O)OC (stereo not given in full) is ____.
output: -100

input: Fill in the blank: the reported growth of "CN(CCCl)c1ccc(/C=C/C2=[N+](C)c3ccccc3C2(C)C)cc1" is ____.
output: 21.8

* * *

Entries and their growth values follow.
- System: OVCAR-4 ovarian
- protocol-text: NCI-60 one-dose screen, 48 h (100 = growth as untreated, 0 = no growth, -100 = all killed)
- condition: 10 µM
Compounds without any hit were thinned out: in the full panel of roughly 83,000, 20% have a hit.
// note: answer is a bare numeric in %

Check out these entries, answers already filled in.
| molecule | target-entity | endpoint-unit | growth |
| --- | --- | --- | --- |
| CC[C@@]1(O)C[C@H](OC2CC(N(C)C)C(O)C(C)O2)c2c(cc3c(c2O)C(=O)c2c(O)ccc(O)c2C3=O)[C@H]1C(=O)OC (stereo partly specified) | OVCAR-4 ovarian | % | -44.2 |
| O=C(CCl)Nc1ccc(Cl)cc1 | OVCAR-4 ovarian | % | 17.6 |
| Cc1ccc(NC(=O)CBr)cc1 | OVCAR-4 ovarian | % | 102 |
| O=[P+](O)c1ccccc1 | OVCAR-4 ovarian | % | 114 |
| O=C(O)c1cc(Cc2ccc(O)c(C(=O)O)c2)ccc1O (tested in a mixture with another compound) | OVCAR-4 ovarian | % | 66.9 |

input: Fill in the blank: the reported growth of "COc1cc(/C=C/[N+](=O)[O-])cc(Br)c1OC" is ____.
output: 60.3

* * *

Entries and their growth values follow.
- System: COLO 205 colon
- protocol-text: NCI-60 one-dose screen, 48 h (100 = growth as untreated, 0 = no growth, -100 = all killed)
- condition: 10 µM
Compounds without any hit were thinned out: in the full panel of roughly 83,000, 20% have a hit.
// note: answer is a bare numeric in %

Check out these entries, answers already filled in.
| molecule | obs-value |
| --- | --- |
| O=[N+]([O-])c1cc[n+]([O-])c2ccccc12 | -74.9 |
| Oc1c(I)cc(I)cc1I | 116 |
| COS(=O)(=O)c1ccccc1 | 113 |
| S=C=NCCc1ccccc1 | 63.1 |
| O=C(CBr)Nc1ccc(Cl)cc1 | -3.53 |

input: Fill in the blank: the reported growth of "Cc1ccc(NC(=O)CBr)cc1" is ____.
output: 108

input: Fill in the blank: the reported growth of CC1CCC2(OC1)OC1C(O)C3C4CCC5CC(OC6OC(CO)C(OC7OC(CO)C(O)C(OC8OCC(O)C(O)C8O)C7OC7OC(CO)C(O)C(OC8OC(CO)C(O)C(O)C8O)C7O)C(O)C6O)C(O)CC5(C)C4CCC3(C)C1C2C (stereo unspecified) is ____.
output: 22.7

input: Fill in the blank: the reported growth of "COc1cc2c(c(OC)c1OC)-c1ccc(O)c(=O)cc1[C@@H](NC(C)=O)CC2" is ____.
output: 72.6

input: Fill in the blank: the reported growth of "[Cl][Hg][c]1ccc(Cl)s1" is ____.
output: -81.2

input: Fill in the blank: the reported growth of "C[C@@H]1C[C@@H]([C@H](O)CC2CC(=O)NC(=O)C2)C(=O)[C@@H](C)C1" is ____.
output: -14.9

input: Fill in the blank: the reported growth of "COc1ccc2c(ccc3oc([N+](=O)[O-])cc32)c1" is ____.
output: -76.3
